Assay: yeast display, Sf9 membrane polyspecificity reagent, FACS + sequencing; frameworks hold sequencing errors
measurement_type: polyreactivity (PSR sort gate)

Observe how each entry below is paired with its result.
[[record]]
sequence_chain = "QVQLVESGGGLVQAGGSLRLSCAASGRIFYYNGMGWYRQAPGKERELVAAISSRGGSTYYADSVKGRFTISRDNAKNTVYLQMNSLKPEDTAVYYCAATLSDRYSWRPYGMYYWGQGTQVTVSS"
assay_value = "high polyreactivity"

[[record]]
sequence_chain = "QVQLVESGGGLVQAGGSLRLSCAASGSTFLVYAMGWYRQAPGKERELVADITSRGGSTYYADSVKGRFTISRDNAKNTVYLQMISLKPEDTAVYYCAARKRFVLFDYWGQGTQVTVSS"
assay_value = "low polyreactivity"

[[record]]
sequence_chain = "QVQLQDSGGRLVQAGGSLRLSCAASGYIFGSCSMGWFRQSPGKVRELVATINNGSSTYYADSVKGRITISRDNAKNSVYLQMNSLKPEDTAVYYCAVSLYRLTFFYYWGQGNQVTVSS"
assay_value = "high polyreactivity"

[[record]]
sequence_chain = "QVQLVESGGGLVQEGGSLRLSCAASGITFSYYAMGWYREAPGKEREWVATIRSSGGSTYYADSVKGRFTISRENAKNTVYLQMNSQKPEDTAVYYCAVRLWFDYNYWGQGTQVTVSS"
assay_value = "low polyreactivity"


Now let's try a different one.
polyreactivity (PSR sort gate) in this record for QVQLVESGGGLVQAGGSLRLSCAASGFIFGYNAMGWYRQAPGKERELVAAIDWSGTSTYYADSVKGRFTISRDNAKNTVYLQMNSLKPEDTAVYYCAADTSTWAHTRGYDYWGQGTQVTVSS : high polyreactivity
